What IC50 was measured for each of the following?
System: rat platelet
Assay: Inhibitory activity of aggregation in rat platelet
Type: cell-based
Conditions: rat platelet rich plasma, arachidonic acid (final concentration 0.5 mM) as inducer; read-out: C: Inhibitory activity of aggregation in rat platelet (IC50; μM)
Protocol: (3) Inhibitory Activity of Aggregation in Rat Platelet The abdomen of etherized rat was open, and blood was taken from the abdominal arteries, using a sodium citrate solution (final concentration was 0.38%). The blood was centrifuged at 1100 rpm for 10 minutes, and the supernatent was separated as the platelet rich plasma. The plasma was further centrifuged at 2000 rpm for 15 minutes to obtain the supernatent as a platelet poor plasma. […] The change in light transmission was recorded for 5 minutes.
The response must be a number in µM with no trailing unit.

State the recorded IC50 for this entry: O=C(O)Cc1ccc(NC(=O)C(COC2CCCCO2)NS(=O)(=O)c2ccc(I)cc2)cc1 (racemic)
0.53

# get_value(readout='IC50', item= O=C(O)Cc1ccc(NC(=O)C(Cc2ccccc2)NS(=O)(=O)c2ccc(Br)cc2)cc1 (racemic) )
0.17

What value of measured IC50 is listed for CSCC[C@H](NS(=O)(=O)c1ccc(Br)cc1)C(=O)Nc1ccc(CCC(=O)O)cc1 ?
0.17

----------
system: rat platelet; test: Inhibitory activity of aggregation in rat platelet; type: cell-based; details: rat platelet rich plasma, arachidonic acid (final concentration 0.5 mM) as inducer; read-out: C: Inhibitory activity of aggregation in rat platelet (IC50; μM)
Structures can show the parent of a compound that is named as a salt.
One threshold, 2 µM, splits the recorded IC50 values: lower ones are Fulfilled, equal or higher ones are Not fulfilled.

Quick check: IC50 of O=C(O)Cc1ccc(NC(=O)C(COc2ccc(Cl)cc2)NS(=O)(=O)c2ccc(I)cc2)cc1 (racemic) under 2 µM?
Not fulfilled

# check: IC50 < 2 µM for CCCC[C@@H](NS(=O)(=O)c1ccc(Cl)cc1)C(=O)Nc1ccc(CC(=O)O)cc1
Not fulfilled

Report whether reported IC50 is lower than 2 µM (strictly) for O=C(O)Cc1ccc(NC(=O)C(COc2cccc(Cl)c2)NS(=O)(=O)c2ccc(F)cc2)cc1 (racemic)
Fulfilled

Hello, is IC50 of the following compound strictly smaller than 2 µM? O=C(O)Cc1cccc(NC(=O)C(COC2CCCCO2)NS(=O)(=O)c2ccc(Cl)cc2)c1 (racemic)
Not fulfilled

Identify whether the compound O=C(O)Cc1ccc(NC(=O)C(COc2cccnc2)NS(=O)(=O)c2ccc(Cl)cc2)cc1 (racemic) [Example 116, hydrochloride] records IC50 below 2 µM.
Fulfilled

Confirm or reject: IC50 of O=C(O)CCc1ccc(NC(=O)[C@H](Cc2ccccc2)NS(=O)(=O)c2ccc(Br)cc2)cc1 lies strictly below 2 µM
Fulfilled

IC50 strictly < 2 µM for this compound? O=C(O)Cc1ccc(NC(=O)C(COc2ccc(Cl)cc2)NS(=O)(=O)c2ccc(F)cc2)cc1 (racemic)
Fulfilled

API: query returns whether the compound falls strictly under 2 µM in IC50. Query: CC(C)C(NS(=O)(=O)c1ccc(Cl)cc1)C(=O)Nc1ccc(CC(=O)O)cc1 (racemic)
Fulfilled

----------
target: thromboxane A2 (TxA2) receptor (Cavia porcellus); construct: to obtain washed platelets; from tissue; host or cells: washed platelets of male Hartley guinea pigs; test: TxA2 antagonist action by binding assay; conditions: washed guinea pig platelets, 1 nM [3H]-SQ29,548, 45 minutes at 25° C.
Sequence (A0A286Y4I8 1-347): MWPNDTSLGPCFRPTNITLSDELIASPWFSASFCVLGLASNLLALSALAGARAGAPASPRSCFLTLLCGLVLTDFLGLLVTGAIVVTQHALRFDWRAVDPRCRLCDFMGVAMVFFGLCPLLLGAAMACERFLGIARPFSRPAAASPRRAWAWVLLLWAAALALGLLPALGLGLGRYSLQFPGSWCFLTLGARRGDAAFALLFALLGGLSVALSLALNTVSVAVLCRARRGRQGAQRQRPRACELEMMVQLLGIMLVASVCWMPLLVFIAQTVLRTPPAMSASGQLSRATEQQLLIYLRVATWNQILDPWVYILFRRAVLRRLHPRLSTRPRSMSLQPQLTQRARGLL
Structures can show the parent of a compound that is named as a salt.
Answer each item with its documented IC50.
Please state the figure in µM; there is no need to write the unit.

May I ask what IC50 has been recorded for O=C(O)Cc1cccc(NC(=O)C(COC2CCCCO2)NS(=O)(=O)c2ccc(Cl)cc2)c1 (racemic) ?
0.42

Look at this compound and give its reported IC50. O=C(O)Cc1ccc(NC(=O)C(COc2ccccc2Cl)NS(=O)(=O)c2ccc(Cl)cc2)cc1 (racemic)
0.023

Looking for the measured IC50 of O=C(O)Cc1ccc(NC(=O)C(CCOC2CCCCO2)NS(=O)(=O)c2ccc(Cl)cc2)cc1 (racemic) , can you help?
0.69

Endpoint output: IC50 of O=C(O)Cc1ccc(NC(=O)C(COc2cccc(Cl)c2)NS(=O)(=O)c2ccc(F)cc2)cc1 (racemic) . Value?
0.1

# get_value(readout='IC50', item= Cc1ccc(S(=O)(=O)NC(COC2CCCCO2)C(=O)Nc2ccc(CC(=O)O)cc2)cc1 (racemic) )
0.3

Please report the recorded IC50 for CC(C)CC(NS(=O)(=O)c1ccc(Cl)cc1)C(=O)Nc1ccc(CC(=O)O)cc1 (racemic) .
0.16

Fill in the blank: the reported IC50 of CSCCC(NS(=O)(=O)c1ccc(Cl)cc1)C(=O)Nc1ccc(CCC(=O)O)cc1 (racemic) is ____.
0.42

Could you share which IC50 value was measured for O=C(O)CCc1ccc(NC(=O)[C@H](Cc2ccccc2)NS(=O)(=O)c2ccc(Br)cc2)cc1 ?
0.005

Would you mind telling me what IC50 value was observed for O=C(O)Cc1ccc(NC(=O)C(Cc2ccccc2)NS(=O)(=O)c2ccc(Br)cc2)cc1 (racemic) ?
0.012

What measured IC50 goes with CCCCC(NS(=O)(=O)c1ccc(Br)cc1)C(=O)Nc1ccc(CC(=O)O)cc1 (racemic) ?
0.072

Fill in: IC50 of O=C(O)CCCCCCNC(=O)C(Cn1ccnc1)NS(=O)(=O)c1ccc(Cl)cc1 (racemic) [Example 101, hydrochloride] is ___
0.41

# input compound: O=C(O)Cc1ccc(NC(=O)C(COc2cccc(Cl)c2)NS(=O)(=O)c2ccc(Br)cc2)cc1 (racemic) ; wanted: its IC50
0.051

IC50 for O=C(O)Cc1ccc(NC(=O)C(COc2ccccc2Cl)NS(=O)(=O)c2ccc(I)cc2)cc1 (racemic) ?
0.074

Consider the compound shown here: O=C(O)CCCCCNC(=O)C(COC1CCCCO1)NS(=O)(=O)c1ccc(Cl)cc1 (racemic) What is its recorded IC50?
1.7
